# tested_target: GST-tagged truncated LRRK2 (Homo sapiens, UniProt Q5S007)
# Construct: GST-tagged truncated LRRK2 from Invitrogen (Cat # PV4874); GST
# Sequence (Q5S007 970-2527 limits assumed): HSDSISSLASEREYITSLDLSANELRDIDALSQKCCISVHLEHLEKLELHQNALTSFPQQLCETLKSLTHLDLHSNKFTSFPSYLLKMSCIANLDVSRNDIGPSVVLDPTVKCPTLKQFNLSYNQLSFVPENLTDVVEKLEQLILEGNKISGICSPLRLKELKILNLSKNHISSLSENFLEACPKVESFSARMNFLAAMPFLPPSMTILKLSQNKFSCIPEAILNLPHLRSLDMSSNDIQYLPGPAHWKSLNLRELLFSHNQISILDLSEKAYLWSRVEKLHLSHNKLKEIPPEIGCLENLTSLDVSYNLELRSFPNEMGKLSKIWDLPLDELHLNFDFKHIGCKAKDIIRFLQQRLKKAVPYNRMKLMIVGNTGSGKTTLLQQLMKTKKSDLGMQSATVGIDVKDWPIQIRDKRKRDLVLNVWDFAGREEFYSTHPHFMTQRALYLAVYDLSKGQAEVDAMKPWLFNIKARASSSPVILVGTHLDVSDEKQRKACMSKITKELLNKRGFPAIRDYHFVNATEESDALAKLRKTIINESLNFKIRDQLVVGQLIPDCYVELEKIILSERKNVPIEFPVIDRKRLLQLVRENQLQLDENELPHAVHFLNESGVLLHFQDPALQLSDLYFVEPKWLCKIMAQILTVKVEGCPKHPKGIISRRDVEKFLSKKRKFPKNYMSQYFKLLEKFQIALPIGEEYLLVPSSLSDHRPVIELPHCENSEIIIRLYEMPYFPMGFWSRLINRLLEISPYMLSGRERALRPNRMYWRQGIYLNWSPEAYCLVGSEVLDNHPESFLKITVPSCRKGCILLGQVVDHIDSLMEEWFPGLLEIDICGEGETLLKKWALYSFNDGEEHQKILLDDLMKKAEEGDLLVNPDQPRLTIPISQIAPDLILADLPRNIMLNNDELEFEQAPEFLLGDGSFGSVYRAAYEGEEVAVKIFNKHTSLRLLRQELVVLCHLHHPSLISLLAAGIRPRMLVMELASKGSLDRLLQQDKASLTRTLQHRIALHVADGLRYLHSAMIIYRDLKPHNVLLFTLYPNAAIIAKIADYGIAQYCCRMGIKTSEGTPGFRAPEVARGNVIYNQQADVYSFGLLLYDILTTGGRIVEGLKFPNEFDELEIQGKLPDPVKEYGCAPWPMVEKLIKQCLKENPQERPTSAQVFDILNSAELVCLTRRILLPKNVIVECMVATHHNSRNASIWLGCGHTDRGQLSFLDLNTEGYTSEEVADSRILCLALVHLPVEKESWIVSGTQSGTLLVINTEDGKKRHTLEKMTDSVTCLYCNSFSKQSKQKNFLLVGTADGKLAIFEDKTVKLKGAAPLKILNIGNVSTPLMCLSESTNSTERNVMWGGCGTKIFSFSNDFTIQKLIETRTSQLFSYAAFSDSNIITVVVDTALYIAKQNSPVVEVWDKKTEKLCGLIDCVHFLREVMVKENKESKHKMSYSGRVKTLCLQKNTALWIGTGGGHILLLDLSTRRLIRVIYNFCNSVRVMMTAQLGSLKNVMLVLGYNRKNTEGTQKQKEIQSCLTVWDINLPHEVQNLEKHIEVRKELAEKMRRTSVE
# procedure_text: LRRK2 kinase assay (Lantha Screen)
# condition_details: 1 mM ATP (head); a = geometric mean of >=4 determinations, b = single determination; read-out: LRRK2 LANTHA EC50 at 1 mM ATP; Geometric mean of 2-3 determinations unless otherwise indicated
In this section, each of the compounds is paired with its reported pEC50.
pEC50 is defined as minus the log10 of a concentration measured in mol/L.

[
  {
    "compound": "N#Cc1cccc(-c2c[nH]c3nccc(N4CCOCC4)c23)n1 [Example 19]",
    "pEC50": 7.32
  },
  {
    "compound": "N#Cc1cccc(-c2c[nH]c3nccc(-c4cccnc4)c23)c1 [Example 93]",
    "pEC50": 7.34
  }
]

We now examine a further compound.
Look at this compound and give its reported pEC50. N#Cc1cccc(-c2c[nH]c3nccc(N4C[C@@H](F)[C@H](F)C4)c23)c1 [Example 73] 7.35

---

# tested_target: GST-tagged truncated LRRK2 (Homo sapiens, UniProt Q5S007)
# Construct: GST-tagged truncated LRRK2 from Invitrogen (Cat # PV4874); GST; purchased Invitrogen PV4874
# procedure_text: LRRK2 kinase assay (Lantha Screen)
# Type: biochemical
# condition_details: 1 mM ATP (head); a = geometric mean of >=4 determinations, b = single determination; read-out: LRRK2 LANTHA EC50 at 1 mM ATP; Geometric mean of 2-3 determinations unless otherwise indicated
result_type: EC50

A selection of reference data follows.
[
  {
    "molecule": "Cn1cc(-c2c[nH]c3nccc(N4CCCC(CO)C4)c23)cn1 (stereo not shown)",
    "result_type": "EC50",
    "reported_result": "140 nM"
  },
  {
    "molecule": "CNS(=O)(=O)c1cccc(-c2ccnc3[nH]cc(-c4cccc(C#N)c4)c23)c1",
    "result_type": "EC50",
    "reported_result": "92.5 nM"
  },
  {
    "molecule": "N#Cc1cc(-c2c[nH]c3nccc(N4CCOCC4)c23)ccc1F",
    "result_type": "EC50",
    "reported_result": "226 nM"
  },
  {
    "molecule": "OCc1ccc(F)c(-c2c[nH]c3nccc(N4CCOCC4)c23)c1",
    "result_type": "EC50",
    "reported_result": "72.5 nM"
  }
]

Look at this molecule and give its reported EC50. "Cn1cc(-c2c[nH]c3nncc(N4CCOCC4)c23)cn1" 201 nM

Look at this molecule and give its reported EC50. "Cn1cc(-c2c[nH]c3nccc(N4CCSCC4)c23)cn1" 71.9 nM

Look at this molecule and give its reported EC50. "Cc1[nH]c2nccc(N3CCOCC3)c2c1-c1cccc(F)c1" 101 nM

---

# tested_target: GST-tagged truncated LRRK2 (Homo sapiens, UniProt Q5S007)
# Construct: GST-tagged truncated LRRK2 from Invitrogen (Cat # PV4874); GST
# procedure_text: LRRK2 kinase assay (Lantha Screen)
# condition_details: 1 mM ATP (head); a = geometric mean of >=4 determinations, b = single determination; read-out: LRRK2 LANTHA EC50 at 1 mM ATP; Geometric mean of 2-3 determinations unless otherwise indicated
result_type: EC50
Lab note: write values as number then unit, every time.

[
  {
    "compound": "Cn1cc(-c2c[nH]c3nccc(N4CCOCC4)c23)nc1C#N",
    "tested_target": "GST-tagged truncated LRRK2 (Homo sapiens, UniProt Q5S007)",
    "EC50": "5.26 nM"
  },
  {
    "compound": "Cc1nnc(-c2cccc(-c3ccnc4[nH]cc(-c5cccc(C#N)c5)c34)c2)o1",
    "tested_target": "GST-tagged truncated LRRK2 (Homo sapiens, UniProt Q5S007)",
    "EC50": "234 nM"
  },
  {
    "compound": "COc1ccc(F)cc1-c1c[nH]c2nccc(N3CCOCC3)c12",
    "tested_target": "GST-tagged truncated LRRK2 (Homo sapiens, UniProt Q5S007)",
    "EC50": "92.3 nM"
  },
  {
    "compound": "Cn1cc(-c2c[nH]c3nccc(-c4cccc(C#N)c4)c23)cn1",
    "tested_target": "GST-tagged truncated LRRK2 (Homo sapiens, UniProt Q5S007)",
    "EC50": "188 nM"
  },
  {
    "compound": "Cn1cc(-c2c[nH]c3nccc(N4CCOCC4)c23)cn1",
    "tested_target": "GST-tagged truncated LRRK2 (Homo sapiens, UniProt Q5S007)",
    "EC50": "26.5 nM"
  },
  {
    "compound": "Cn1cc(-c2c[nH]c3nccc(N4CCCC(F)(F)C4)c23)cn1",
    "tested_target": "GST-tagged truncated LRRK2 (Homo sapiens, UniProt Q5S007)",
    "EC50": "197 nM"
  },
  {
    "compound": "c1cnn2c(-c3c[nH]c4nccc(N5CCOCC5)c34)cnc2c1",
    "tested_target": "GST-tagged truncated LRRK2 (Homo sapiens, UniProt Q5S007)",
    "EC50": "14 nM"
  },
  {
    "compound": "N#Cc1cccc(-c2c[nH]c3nccc(C4=CCOCC4)c23)c1",
    "tested_target": "GST-tagged truncated LRRK2 (Homo sapiens, UniProt Q5S007)",
    "EC50": "7.17 nM"
  }
]

Look at this compound and give its reported EC50. "CN(C)c1ccnc2[nH]cc(-c3cnn(C)c3)c12" 185 nM

Look at this compound and give its reported EC50. "Cc1cc(N2CCOCC2)c2c(-c3cccc(C#N)c3F)c[nH]c2n1" 95.4 nM

Look at this compound and give its reported EC50. COC1CCCN(c2ccnc3[nH]cc(-c4cccc(C#N)c4)c23)C1 (stereo not drawn) 95.8 nM

Look at this compound and give its reported EC50. "N#Cc1cccc(-c2c[nH]c3nncc(N4CCOCC4)c23)c1" 42.2 nM

Look at this compound and give its reported EC50. "Fc1ccc(F)c(-c2c[nH]c3nccc(N4CCOCC4)c23)c1" 130 nM

---

In this section, each of the molecules is paired with its reported EC50.
# tested_target: GST-tagged truncated LRRK2 (Homo sapiens)
# Construct: GST-tagged truncated LRRK2 from Invitrogen (Cat # PV4874); GST
# procedure_text: LRRK2 kinase assay (Lantha Screen)
# condition_details: 1 mM ATP (head); a = geometric mean of >=4 determinations, b = single determination; read-out: LRRK2 LANTHA EC50 at 1 mM ATP; Geometric mean of 2-3 determinations unless otherwise indicated
I only need the number, in nM, no unit after it.

[
  {
    "compound_structure_string": "Clc1ncccc1-c1c[nH]c2nccc(N3CCOCC3)c12",
    "tested_target": "GST-tagged truncated LRRK2 (Homo sapiens)",
    "EC50 / nM": 110
  }
]

Request: EC50, test system GST-tagged truncated LRRK2 (Homo sapiens), entry "Cn1cc(-c2c[nH]c3nccc(-c4ccncc4)c23)cn1" 102

Request: EC50, test system GST-tagged truncated LRRK2 (Homo sapiens), entry "COCc1cnc2[nH]cc(-c3cccc(C#N)c3)c2c1N1CCOCC1" 63.4

---

In this section, each of the compounds is paired with its reported EC50.
# tested_target: GST-tagged truncated LRRK2 (Homo sapiens, UniProt Q5S007)
# Construct: GST-tagged truncated LRRK2 from Invitrogen (Cat # PV4874); GST
# procedure_text: LRRK2 kinase assay (Lantha Screen)
# condition_details: 1 mM ATP (head); a = geometric mean of >=4 determinations, b = single determination; read-out: LRRK2 LANTHA EC50 at 1 mM ATP; Geometric mean of 2-3 determinations unless otherwise indicated
I only need the number, in nM, no unit after it.

A selection of reference data follows.
[
  {
    "compound_structure_string": "N#Cc1cc(F)cc(-c2c[nH]c3nccc(N4CCOCC4)c23)c1",
    "tested_target": "GST-tagged truncated LRRK2 (Homo sapiens, UniProt Q5S007)",
    "units_label": "nM",
    "EC50": 140
  },
  {
    "compound_structure_string": "Cn1cc(-c2c[nH]c3nccc(N4CCOCC4)c23)cc1C(N)=O",
    "tested_target": "GST-tagged truncated LRRK2 (Homo sapiens, UniProt Q5S007)",
    "units_label": "nM",
    "EC50": 21.7
  },
  {
    "compound_structure_string": "COc1cc(F)cc(-c2c[nH]c3nccc(N4CCOCC4)c23)c1",
    "tested_target": "GST-tagged truncated LRRK2 (Homo sapiens, UniProt Q5S007)",
    "units_label": "nM",
    "EC50": 44.3
  },
  {
    "compound_structure_string": "Cn1cc(-c2c[nH]c3nccc(-c4ccccc4)c23)cn1",
    "tested_target": "GST-tagged truncated LRRK2 (Homo sapiens, UniProt Q5S007)",
    "units_label": "nM",
    "EC50": 13.7
  }
]

We now examine a further compound.
Look at this compound and give its reported EC50. "N#Cc1cccc(-c2c[nH]c3nccc(N4CCCC(F)(F)C4)c23)c1" 99.2
